Sourced from patent US20210403601A1

Molecular target: T1, Taq DNA polymerase (Thermus aquaticus, UniProt P19821 1-832)
T1 construct: also called Taq enzyme; Taq DNA enzyme
T1 sequence (P19821 whole entry): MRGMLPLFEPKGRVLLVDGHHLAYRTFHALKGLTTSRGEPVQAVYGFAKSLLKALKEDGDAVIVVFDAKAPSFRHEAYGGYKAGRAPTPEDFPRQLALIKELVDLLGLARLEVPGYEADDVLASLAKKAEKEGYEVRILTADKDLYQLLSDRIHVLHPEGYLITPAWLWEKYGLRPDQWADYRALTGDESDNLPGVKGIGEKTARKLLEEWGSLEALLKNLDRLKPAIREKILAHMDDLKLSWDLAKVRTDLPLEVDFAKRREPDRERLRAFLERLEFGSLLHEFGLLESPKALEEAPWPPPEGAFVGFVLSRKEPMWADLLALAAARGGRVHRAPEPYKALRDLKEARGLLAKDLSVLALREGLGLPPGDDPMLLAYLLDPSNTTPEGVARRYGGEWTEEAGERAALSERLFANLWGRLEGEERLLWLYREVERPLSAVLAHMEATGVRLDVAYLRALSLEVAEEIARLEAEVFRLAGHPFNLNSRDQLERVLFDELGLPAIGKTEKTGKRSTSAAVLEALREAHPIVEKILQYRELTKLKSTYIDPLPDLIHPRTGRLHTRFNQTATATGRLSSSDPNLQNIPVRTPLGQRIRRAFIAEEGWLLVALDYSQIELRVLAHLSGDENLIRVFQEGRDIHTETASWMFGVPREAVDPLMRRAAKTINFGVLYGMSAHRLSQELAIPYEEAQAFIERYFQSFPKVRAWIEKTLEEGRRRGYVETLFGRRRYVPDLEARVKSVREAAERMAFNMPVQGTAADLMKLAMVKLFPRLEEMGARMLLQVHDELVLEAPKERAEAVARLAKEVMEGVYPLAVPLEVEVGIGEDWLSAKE
Experiment: AMC sensor, antibody immobilised
RECORDED_ENDPOINT: kon (M⁻¹ s⁻¹)
A number alone suffices; assume M⁻¹ s⁻¹.

Example results:
binder="Mutation 1-24 (antibody, V domains shown, Mutation 1 background; CDRs built) VH: QVQLQQPGAELVKPGASVRLSCQTSVETFSTYYIYWVKQRPGEGLEWIGGVNPTSGGPVFNEKFKSKATLTVDTSSSTAYMQLSSLTSVDSAVYYCTRSLLRRGYYFDYWGQGTALTVSS VL: DIQMTQTTSSLSASLGDRVTISCRASQDIQNYVNWYQQKPDGTIKLLIYYTSRLQSGLPSRFSGSGSGTDYSLTIANLEQEDIATYFCQQDDTLPVTFGAGTKVELKR" obs_value=56400
binder="Mutation 1-1 (antibody, V domains shown, Mutation 1 background; CDRs built) VH: QVQLQQPGAELVKPGASVRLSCQTSVDTFTTYYIYWVKQRPGEGLEWIGGINPTSNPVFNEKFKSKATLTVDTSSSTAYMQLSSLTSVDSAVYYCTRSIVRRGYYFDYWGQGTALTVSS VL: DIQMTQTTSSLSASLGDRVTISCRASQDINNYVNWYQQKPDGTIKLLIYYTSRLQSGVPSRFSGSGSGTDYSLTIANLEQEDIATYFCQQDDTIPITFGAGTKVELKR" obs_value=32200

Now look at this entry.
kon for Mutation 1-27 (antibody, V domains shown, Mutation 1 background; CDRs built) VH: QVQLQQPGAELVKPGASVRLSCQTSVNTFTTYYIYWVKQRPGEGLEWIGGVNPTSNPVFNEKFKSKATLTVDTSSSTAYMQLSSLTSVDSAVYYCTRSILRRGYYFDYWGQGTALTVSS VL: DIQMTQTTSSLSASLGDRVTISCRASQDINNYLNWYQQKPDGTIKLLIYYTSRLQSGIPSRFSGSGSGTDYSLTIANLEQEDIATYFCQQDDTIPVTFGAGTKVELKR is 72400
